# literature pull: Dopamine beta-hydroxylase (Bos taurus, UniProt P15101) pKi
Target: Dopamine beta-hydroxylase (Bos taurus, UniProt P15101)
Sequence (P15101 whole entry): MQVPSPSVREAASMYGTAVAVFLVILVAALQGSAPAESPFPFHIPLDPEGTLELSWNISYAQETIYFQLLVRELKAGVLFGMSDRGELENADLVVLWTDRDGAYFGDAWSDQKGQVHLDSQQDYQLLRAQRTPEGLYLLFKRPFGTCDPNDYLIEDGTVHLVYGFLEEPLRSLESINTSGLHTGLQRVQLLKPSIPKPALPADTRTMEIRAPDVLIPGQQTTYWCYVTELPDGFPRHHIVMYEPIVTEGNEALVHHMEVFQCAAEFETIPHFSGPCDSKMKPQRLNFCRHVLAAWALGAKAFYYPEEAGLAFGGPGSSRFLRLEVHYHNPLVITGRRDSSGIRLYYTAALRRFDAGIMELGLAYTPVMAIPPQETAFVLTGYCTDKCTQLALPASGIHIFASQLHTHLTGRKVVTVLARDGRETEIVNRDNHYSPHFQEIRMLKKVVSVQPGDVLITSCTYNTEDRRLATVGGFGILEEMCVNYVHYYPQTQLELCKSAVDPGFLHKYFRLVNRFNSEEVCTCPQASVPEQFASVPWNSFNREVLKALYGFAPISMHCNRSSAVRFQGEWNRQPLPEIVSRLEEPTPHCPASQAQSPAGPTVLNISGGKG
pKi is defined as minus the log10 of a concentration measured in mol/L.

Here's what some known entries look like.
COc1ccc(CC2CC2)cc1 : 3.62
C=C(CN)c1ccoc1 : 3.64
C=C(CN)c1ccccc1 : 1.89
C=C(CN)c1ccco1 : 3.39
Oc1cccc2ccoc12 : 2.49

Request: Given Oc1ccc2c(c1)C1CC1C2 (stereo not drawn) , respond with its pKi.
Response: 3.82

Request: State its pKi: c1c2c(cc3c1OCO3)C1CC1C2 (stereo not drawn)
Response: 3.80

Request: State, in one line, measured pKi of COc1ccc2c(c1)C1OC1C2 (stereo not drawn)
Response: 3.19

Request: Indicate its recorded pKi; the compound in question is Oc1cc2c(cc1O)C1CC1C2 (stereo not drawn)
Response: 3.96

Request: Quickly give me recorded pKi for C=C(CNC)c1cccs1
Response: 2.67

Request: Consider the compound c1ccc2c(c1)CC1CC21 (stereo not drawn) and give its recorded pKi.
Response: 2.52

Request: Look up and state reported pKi for COc1ccc2c(c1)C1CC1C2 (stereo not drawn)
Response: 2.95
